Listed compounds paired with reported IC50
Target entity: Tankyrase-2 (Homo sapiens, UniProt Q9H2K2)
Construct: GST-tagged Tankyrase-2 (873-1166 aa)
Sequence (Q9H2K2 873-1166): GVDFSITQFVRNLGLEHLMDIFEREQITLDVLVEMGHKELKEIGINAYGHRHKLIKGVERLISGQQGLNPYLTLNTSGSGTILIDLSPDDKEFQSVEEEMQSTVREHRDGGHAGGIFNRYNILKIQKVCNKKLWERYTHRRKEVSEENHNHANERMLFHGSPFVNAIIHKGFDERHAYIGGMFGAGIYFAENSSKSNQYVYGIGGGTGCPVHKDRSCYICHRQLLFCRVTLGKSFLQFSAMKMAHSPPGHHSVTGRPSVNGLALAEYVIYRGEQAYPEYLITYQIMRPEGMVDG
Assay details: Tankyrase 2 autoparsylation assay (HTRF enzyme assay)
Type: biochemical
Measurement context: GST-tagged Tankyrase-2 (873-1166 aa)
Property: IC50

CC1(c2ccc(-c3cc4ccc(F)cc4c(=O)[nH]3)cc2)CCCO1 (stereo not drawn) | 300 to 3000 nM
COC(=O)c1ccc(-c2cc3ccccc3c(=O)[nH]2)cc1 | < 300 nM
Cc1ccc(-c2cc3c(F)cccc3c(=O)[nH]2)cc1 | 300 to 3000 nM
CC(C)(F)c1ccc(-c2cc3ccccc3c(=O)[nH]2)cc1 | 300 to 3000 nM
COC(C)(C)c1ccc(-c2cc3ccccc3c(=O)[nH]2)cc1 | 300 to 3000 nM
CC(C)(O)c1ccc(-c2cc3cccc(F)c3c(=O)[nH]2)cc1 | < 300 nM
CC(C)(O)c1ccc(-c2cc3ccccc3c(=O)[nH]2)cc1 | < 300 nM
Cc1ccc2cc(-c3ccc(C(C)(C)O)cc3)[nH]c(=O)c2c1 | 300 to 3000 nM
CC(C)(O)c1ccc(-c2cc3c(F)cccc3c(=O)[nH]2)cc1 | < 300 nM
